Molecular target: Genome polyprotein (Hepatitis C virus genotype 1a (isolate 1) (HCV))
Sequence (P26664 2421-3011 limits assumed): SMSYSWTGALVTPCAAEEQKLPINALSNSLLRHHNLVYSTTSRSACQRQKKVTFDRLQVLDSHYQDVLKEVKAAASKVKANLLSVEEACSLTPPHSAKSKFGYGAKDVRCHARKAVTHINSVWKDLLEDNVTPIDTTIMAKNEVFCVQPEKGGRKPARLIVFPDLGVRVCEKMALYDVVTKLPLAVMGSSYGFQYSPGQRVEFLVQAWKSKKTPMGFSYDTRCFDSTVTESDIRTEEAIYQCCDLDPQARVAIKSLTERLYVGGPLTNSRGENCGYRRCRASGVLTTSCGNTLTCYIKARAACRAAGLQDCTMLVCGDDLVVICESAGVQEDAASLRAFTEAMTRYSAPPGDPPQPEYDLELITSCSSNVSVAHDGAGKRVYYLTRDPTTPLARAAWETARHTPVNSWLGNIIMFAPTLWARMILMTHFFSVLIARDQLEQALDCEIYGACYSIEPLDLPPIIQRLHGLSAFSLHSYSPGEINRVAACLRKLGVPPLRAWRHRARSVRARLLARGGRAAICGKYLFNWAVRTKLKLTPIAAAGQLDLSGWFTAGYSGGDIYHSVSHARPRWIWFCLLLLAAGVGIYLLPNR
Test: Inhibition of HCV NS5B polymerase
endpoint name: IC50 (µM)
// note: answer is a bare numeric in µM

Request the reported IC50 associated with CC(=O)c1ccc(-c2cc(NS(=O)(=O)c3ccc(C)cc3C)c(C(=O)O)s2)cc1
0.39

Need IC50, item Cc1ccc(S(=O)(=O)Nc2cc(-c3ccccc3)sc2C(=O)O)c(C)c1
1

What IC50 value was documented for this compound, O=C(O)c1sc(-c2ccccc2)cc1NS(=O)(=O)c1ccc(Cl)cc1 ?
4.1

What value of measured IC50 is listed for Cc1ccccc1S(=O)(=O)Nc1cc(-c2ccc(S(C)(=O)=O)cc2)sc1C(=O)O ?
1.8

Consider the compound shown here: Cc1ccccc1S(=O)(=O)Nc1cc(-c2ccccc2)sc1C(=O)O What is its recorded IC50?
5.2

Further cases:
IC50 for Cc1ccc(C)c(S(=O)(=O)Nc2cc(-c3ccccc3)sc2C(=O)O)c1 ?
13

Entry Cc1cc(S(=O)(=O)Nc2cc(-c3ccccc3)sc2C(=O)O)c(C)cc1Cl : reported IC50 = ?
5.4

Name the reported IC50 value associated with the compound Cc1ccccc1C(=O)Nc1cc(-c2ccccc2)sc1C(=O)O
14

Which IC50 value is on record for Cc1ccc(C(=O)Nc2cc(-c3ccccc3)sc2C(=O)O)cc1 ?
12

Look at this compound and give its reported IC50. CC(=O)c1ccc(-c2cc(NS(=O)(=O)c3ccccc3C)c(C(=O)O)s2)cc1
1.4

IC50 lookup needed for Cc1ccc(S(=O)(=O)Nc2cc(-c3ccccc3)sc2C(=O)O)cc1 , thanks.
4.6

Field request: IC50 | item: Cc1ccccc1S(=O)(=O)Nc1sc(-c2ccccc2)cc1C(=O)O
20

I am curious: what IC50 value has been reported for O=C(Nc1cc(-c2ccccc2)sc1C(=O)O)Oc1ccc(Cl)cc1 ?
13

Name the recorded IC50 for Cc1cc(Cl)ccc1S(=O)(=O)Nc1cc(-c2ccccc2)sc1C(=O)O .
0.75

Query (compound): O=C(O)C(Cc1ccccc1)N(Cc1cccc(C(F)(F)F)c1)C(=O)c1ccc(Cl)cc1Cl (centres undefined) ; field requested: IC50
1.8

# IC50 lookup, item Cc1cccc(S(=O)(=O)Nc2cc(-c3ccccc3)sc2C(=O)O)c1
7.4

Requested field: IC50. Item: Cc1cc(S(=O)(=O)Nc2cc(-c3ccccc3)sc2C(N)=O)c(C)cc1Cl
14
